Test system: Bacillus cereus (ATCC 11778)
test protocol: MIC susceptibility test, microdilution with MTT readout
Format: cell-based
protocol conditions: Bacillus ceres ATCC11778
outcome measure: MIC BC
Answer format: number, then unit.

Example entries and their recorded answers appear below.
- CNC(CC(C)C)C(=O)NC1C(=O)NC(CC(N)=O)C(=O)NC2C(=O)NC3C(=O)NC(C(=O)NC(C(=O)O)c4cc(O)cc(O)c4-c4cc3ccc4O)C(O)c3ccc(c(Cl)c3)Oc3cc2cc(c3OC2OC(COS(=O)(=O)c3c(C)cc(C)cc3C)C(O)C(O)C2OC2CC(C)(N)C(O)C(C)O2)Oc2ccc(cc2Cl)C1O (stereo not drawn) [XLI, Glucose-C6-mesitylenesulfonyl Vancomycin]: 1.3 µg/mL
- CNC(CC(C)C)C(=O)NC1C(=O)NC(CC(N)=O)C(=O)NC2C(=O)NC3C(=O)NC(C(=O)NC(C(=O)O)c4cc(O)cc(O)c4-c4cc3ccc4O)C(O)c3ccc(c(Cl)c3)Oc3cc2cc(c3OC2OC(CNCc3ccc(-c4ccc(Cl)cc4)o3)C(O)C(O)C2OC2CC(C)(N)C(O)C(C)O2)Oc2ccc(cc2Cl)C1O (stereo not drawn) [XXX]: 0.63 µg/mL

Checklist item: MIC BC tested on Bacillus cereus (ATCC 11778), entry CCCCCCCCCCNC1(C)CC(OC2C(Oc3c4cc5cc3Oc3ccc(cc3Cl)C(O)C3NC(=O)C(NC(=O)C5NC(=O)C(CC(N)=O)NC(=O)C(NC(=O)C(CC(C)C)NC)C(O)c5ccc(c(Cl)c5)O4)c4ccc(O)c(c4)-c4c(O)cc(O)cc4C(C(=O)O)NC3=O)OC(CNC(=O)c3cnc4ccccc4n3)C(O)C2O)OC(C)C1O (stereo not drawn) [LI] , value?
2.5 µg/mL

----------
Tested on: Enterococcus faecalis (ATCC 29212)
test protocol: MIC susceptibility test, microdilution with MTT readout
Assay type: cell-based
protocol conditions: Enterococcus faecalis ATCC29212; read-out: MIC EF
Method: Evaluation of vancomycin analogs is performed using in vitro susceptibility tests and a time-kill assay. [NCCL Standard, 1993] […] MICs are determined by the microdilution method using 96-well microplates. […] MIC values are evaluated by observing the lowest drug concentration to inhibit bacteria growth.
outcome measure: MIC (µg/mL)
Numbers only, in µg/mL.

A selection of reference data follows.
• CN[C@@H](CC(C)C)C(=O)N[C@H]1C(=O)N[C@@H](CC(N)=O)C(=O)N[C@H]2C(=O)NC3C(=O)N[C@H](C(=O)N[C@@H](C(=O)O)c4cc(O)cc(O)c4-c4cc3ccc4O)[C@H](O)c3ccc(c(Cl)c3)Oc3cc2cc(c3OC2OC(CSc3nc(C)cc(O)n3)C(O)C(O)C2OC2CC(C)(NCc3ccc(-c4ccc(Cl)cc4)cc3)C(O)C(C)O2)Oc2ccc(cc2Cl)[C@H]1O (stereo partly drawn) = 0.32
• CN[C@@H](CC(C)C)C(=O)N[C@H]1C(=O)N[C@@H](CC(N)=O)C(=O)N[C@H]2C(=O)NC3C(=O)N[C@H](C(=O)N[C@@H](C(=O)O)c4cc(O)cc(O)c4-c4cc3ccc4O)[C@H](O)c3ccc(c(Cl)c3)Oc3cc2cc(c3OC2OC(CSc3nccc(C(F)(F)F)n3)C(O)C(O)C2OC2CC(C)(N)C(O)C(C)O2)Oc2ccc(cc2Cl)[C@H]1O (stereo partly drawn) = 2.5

API: the following record is the query input.
Any idea what its MIC is? The compound is CN[C@@H](CC(C)C)C(=O)N[C@H]1C(=O)N[C@@H](CC(N)=O)C(=O)N[C@H]2C(=O)NC3C(=O)N[C@H](C(=O)N[C@@H](C(=O)O)c4cc(O)cc(O)c4-c4cc3ccc4O)[C@H](O)c3ccc(c(Cl)c3)Oc3cc2cc(c3OC2OC(CSc3nnc(NN)n3N)C(O)C(O)C2OC2CC(C)(N)C(O)C(C)O2)Oc2ccc(cc2Cl)[C@H]1O (stereo partly drawn)
0.63

----------
Please go through the items and note down their MIC.
Test system: Enterococcus faecium CL5137, VanA
test protocol: MIC susceptibility test
Assay type: cell-based
protocol conditions: Enterococcus faecium CL5137, VanA; read-out: MIC CL5137
One number for each entry, in µg/mL.

* CN[C@H](CC(C)C)C(=O)N[C@H]1C(=O)N[C@@H](CC(N)=O)C(=O)N[C@H]2C(=O)N[C@H]3C(=O)N[C@H](C(=O)N[C@H](C(=O)O)c4cc(O)cc(O)c4-c4cc3ccc4O)[C@H](O)c3ccc(c(Cl)c3)Oc3cc2cc(c3OC2OC(CSc3nc(N)n[nH]3)C(O)C(O)C2OC2CC(C)(NCc3ccc(-c4ccc(Cl)cc4)cc3)C(O)C(C)O2)Oc2ccc(cc2Cl)[C@H]1O (stereo partly drawn) [LXXIII] | 3.2

Next item in the queue.
# MIC lookup, item CN[C@@H](CC(C)C)C(=O)N[C@H]1C(=O)N[C@@H](CC(N)=O)C(=O)N[C@H]2C(=O)NC3C(=O)N[C@H](C(=O)N[C@@H](C(=O)O)c4cc(O)cc(O)c4-c4cc3ccc4O)[C@H](O)c3ccc(c(Cl)c3)Oc3cc2cc(c3OC2OC(CN=[N+]=[N-])C(O)C(O)C2OC2CC(C)(NCc3ccc(-c4ccc(Cl)cc4)cc3)C(O)C(C)O2)Oc2ccc(cc2Cl)[C@H]1O (stereo partly drawn) [LXXIV]
13

----------
Tested on: Bacillus cereus (ATCC 11778)
test protocol: MIC susceptibility test, microdilution with MTT readout
Assay type: cell-based
protocol conditions: Bacillus ceres ATCC11778
Please go through the items and note down their MIC BC.
One number for each entry, in µg/mL.

Could you tell me MIC BC for each of these molecules? They are listed below.
1. CCCCCCCCCCNC1(C)CC(OC2C(Oc3c4cc5cc3Oc3ccc(cc3Cl)C(O)C3NC(=O)C(NC(=O)C5NC(=O)C(CC(N)=O)NC(=O)C(NC(=O)C(CC(C)C)NC)C(O)c5ccc(c(Cl)c5)O4)c4ccc(O)c(c4)-c4c(O)cc(O)cc4C(C(=O)O)NC3=O)OC(CNCc3ccc(-c4ccc(Cl)cc4)o3)C(O)C2O)OC(C)C1O (centres unmarked)
2. CCCCCCCCCCNCC1OC(Oc2c3cc4cc2Oc2ccc(cc2Cl)C(O)C2NC(=O)C(NC(=O)C4NC(=O)C(CC(N)=O)NC(=O)C(NC(=O)C(CC(C)C)NC)C(O)c4ccc(c(Cl)c4)O3)c3ccc(O)c(c3)-c3c(O)cc(O)cc3C(C(=O)O)NC2=O)C(OC2CC(C)(N)C(O)C(C)O2)C(O)C1O (centres unmarked)

[3.8, 1.3]
